# ASSAYED_TARGET: T1, CD47 extracellular domain (biotin (enzymatically biotinylated; stated for the SPR experiment))
# T1 construct: CD47 extracellular domain; bought protein Abcam ab174029; source: bought: Abcam (ab174029), enzymatically biotinylated
# T1 sequence (chain, as listed by the source): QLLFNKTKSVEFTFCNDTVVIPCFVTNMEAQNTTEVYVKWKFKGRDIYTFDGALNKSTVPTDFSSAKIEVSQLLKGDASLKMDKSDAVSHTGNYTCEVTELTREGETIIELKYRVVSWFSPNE
# PROTOCOL: SPR; Biacore 3000, 25 °C; ~350 RU enzymatically biotinylated CD47^ext immobilised on a CM5 chip, VHHs flowed over at 40 uL/min in 10 mM HEPES, 150 mM NaCl, 3 mM EDTA, 0.05% P20, pH 7.4; 1:1 Langmuir model; duplicates
# CONDITION_LABEL: both partners purified
VALUE_TYPE: Kd (nM)
One number for each entry, in nM.

[[record]]
binder = "Nb02 quadruple mutant M7 (G107W, T108H, S109V, F110A) (VHH, also called best mutant; lead variant; source: E. coli TransB (DE3), purified (Ni2+ IMAC, HisTrap HP); not shown: His6, C-terminal, kept) VHH: EVQLQASGGGLVQAGGSLRLSCAASGFTNERSQNMGWFRQAPGKEREGVACISSRVVECWYADSVKGRFTISRDNAKNTVYLQMNSLKPEDTAVYYCAAPRAITWHVAVGEHMCDYWGQGTQVTVSS"
value_type = "Kd"
unit_abbreviation = "nM"
assay_value = 3.2


For each of the binders below, state Kd.
1. Nb02 mutant M1 (VHH, One of five triple and two quadruple mutants combined from the round 1 mutations (S55Q, G107I, G107W, T108H, S109E, S109V, F110A); source: E. coli TransB (DE3), purified (Ni2+ IMAC, HisTrap HP)) VHH: EVQLQASGGGLVQAGGSLRLSCAASGFTNERSQNMGWFRQAPGKEREGVACIQSRVVECWYADSVKGRFTISRDNAKNTVYLQMNSLKPEDTAVYYCAAPRAITWHSFVGEHMCDYWGQGTQVTVSS
2. Nb02 mutant M4 (VHH, the text says only that M4 includes F110A; One of five triple and two quadruple mutants combined from the round 1 mutations; source: E. coli TransB (DE3), purified (Ni2+ IMAC, HisTrap HP)) VHH: EVQLQASGGGLVQAGGSLRLSCAASGFTNERSQNMGWFRQAPGKEREGVACIQSRVVECWYADSVKGRFTISRDNAKNTVYLQMNSLKPEDTAVYYCAAPRAITGHSAVGEHMCDYWGQGTQVTVSS
3. Nb02 mutant M6 (VHH, One of five triple and two quadruple mutants combined from the round 1 mutations; source: E. coli TransB (DE3), purified (Ni2+ IMAC, HisTrap HP)) VHH: EVQLQASGGGLVQAGGSLRLSCAASGFTNERSQNMGWFRQAPGKEREGVACIQSRVVECWYADSVKGRFTISRDNAKNTVYLQMNSLKPEDTAVYYCAAPRAITWHVFVGEHMCDYWGQGTQVTVSS

// result
[74.5, 57, 58.2]
